Reference source for all entries: PubChem BioAssay (NCI)

GI50 values by entry
System: CCRF-CEM leukemia
Assay: NCI tumour cell line growth inhibition, 48 h
Outcome Measure: GI50

> print(dat)
                                    compound  reported.measurement
 1  N[C@@H]1CCCN(c2c(/C=C3\SC(=O)NC3=O)cccc2-c2ccccc2)C1                 14 µM
 2  Nc1nnc(Cn2c(-c3ccccc3)nc3ccc(Br)cc3c2=O)s1               16.3 µM
 3  CCCSC1=NC2C(N(CC)C(=O)N2CC)N1/N=C/C=C/c1ccccc1[N+](=O)[O-] (configuration not stated)               2.93 µM
 4  Nc1c(C(=O)Nc2ccccc2F)sc2nc3c(cc12)C(=O)CCC3               3.46 µM
 5  CCCCCCCCCCCCOC1C(CNC(=O)C2OC3OC(C)(C)OC3C2NC(=O)CN2CCCCCC2)OC2OC(C)(C)OC21 (configuration not stated)               4.58 µM
 6                   CC(=O)[O][Hg][c]1ccccc1              0.147 µM
 7  Nc1nc(N)c2nc(CNc3ccc(C(=O)NC(CCCNC(=O)c4ccccc4C(=O)O)C(=O)O)cc3)cnc2n1 (configuration not stated)            0.00148 µM
 8      N#Cc1ccc(C(c2ccc(C#N)cc2)n2cncn2)cc1             > 5000 µM
 9  Cc1ccc(S(=O)(=O)Cc2nc(-c3ccc(C(=O)NCc4cccnc4)cc3)oc2C)cc1             0.0103 µM
10  C#Cc1cccc(Nc2nc3ccc([N+](=O)[O-])cc3nc2Nc2cccc(C#C)c2)c1              0.209 µM
11                    CCCCC#CC#Cc1cccc(=O)o1               15.4 µM
12  Cc1nc(N)sc1C(=O)Nc1cc(C(=O)NCCCN(C)C)n(C)c1              > 100 µM
13  COc1ccc(-c2csc(-c3cc(Cl)cc(Cl)c3Cl)n2)cc1              > 100 µM
14  COc1ccc(-c2cc(-c3cc(OC)c(OC)c(OC)c3)c(C#N)c(N3CCOCC3)n2)cc1O               6.46 µM
15  CC1=C[S+](c2ccccc2)c2cccc3cc4ccccc4c1c23 (configuration not stated)              0.265 µM
16  C/C(Cc1ccc(Cl)cc1)=C(/c1ccc(Cl)cc1)c1ccc(OCCN(C)C)cc1               4.17 µM
17  CC(=O)OCC1O[C@@H]([S-])C(OC(C)=O)[C@H](OC(C)=O)[C@@H]1OC(C)=O.[Au+].c1ccc(CN2[CH-]N(Cc3ccccc3)C(c3ccccc3)=C2c2ccccc2)cc1               1.99 µM

* * *

System: SK-MEL-5 melanoma
Experiment: NCI tumour cell line growth inhibition, 48 h

Compound	TGI
O=C(NCCCCCCCCNC(=O)c1cccc2ccccc12)c1cccc2ccccc12	> 100 µM
C=C1CN(Cc2ccccc2)[C@@H]2CCCCC[C@H](C#N)[C@H]12	> 100 µM
Cc1nc(N)sc1C(=O)Nc1cc(C(=O)NCCCN(C)C)n(C)c1	> 100 µM
CC1=C(c2cc(C(=O)Nc3cccc(C(F)(F)F)c3)ncn2)Sc2ccccc2N1	> 100 µM
CC1OC(OC2C(O)COC(OC3C(C)OC(OC4C(OC(=O)[C@]56CCC(C)(C)C[C@@H]5C5=CCC7[C@@]8(C)C[C@H](O)[C@H](OC9OC(CO)C(O)C(OC%10OC(CO)C(O)C(O)C%10O)C9O)[C@@](C)(CO)[C@@H]8CC[C@@]7(C)[C@]5(C)CC6)OCC(O)C4O)C(O)C3O)C2O)C(O)C(O)C1O (stereo partly drawn)	30.3 µM
CCCCCCCC(=O)SCC/C=C/[C@@H]1CC(=O)NCc2nc(co2)C2=N[C@@](C)(CS2)C(=O)N[C@@H](C(C)C)C(=O)O1	0.0776 µM
COC(=O)c1ccccc1/C=C1\Cc2cc(C)c(C)cc2C1=O	> 100 µM
CC#CCCN(CC#N)Cc1ccccc1	> 100 µM

* * *

Test system: PC-3 prostate
Assay: NCI tumour cell line growth inhibition, 48 h; in the data active = GI50 below about 0.43 µM; inactive = the rest
Classes used: active, inactive

> print(dat)
                                    compound  assigned.label
 1  Cc1cc(C)nc(SC2=C(Nc3cccc(Cl)c3C)C(=O)N(Cc3ccccc3)C2=O)n1        inactive
 2  C#CCOc1cccc(Nc2ncnc3ccc(NC(=O)CCl)cc23)c1        inactive
 3  O=C(O)C1(Cc2cccc(Nc3nccs3)n2)CCC(Oc2cccc(Cl)c2F)CC1 (stereo not given)        inactive
 4  COc1ccc(-c2csc(-c3cc(Cl)cc(Cl)c3Cl)n2)cc1        inactive
 5  CCCCCCCCCCCCOC1C(CNC(=O)C2OC3OC(C)(C)OC3C2NC(=O)CN2CCCCCC2)OC2OC(C)(C)OC21 (stereo not given)        inactive
 6  O=C(OCc1ccc2c(Cl)cc(Cl)c(O)c2n1)c1cc2ccccc2[nH]1          active
 7  O=C1C(Cl)=C(Nc2cccc(O)c2)C(=O)N1c1ccccc1Cl        inactive
 8  CCCCn1sc(=O)n(Cc2ccc(CNC(=O)OCc3ccc4c(Br)cc(Br)c(O)c4n3)cc2)c1=O        inactive
 9  COc1ccc(-c2ccc(/C=N/n3c(C)nn(CN4CCN(C)CC4)c3=S)o2)c([N+](=O)[O-])c1        inactive
10    CCOC(=O)c1cc2c(n1Cc1ccccc1)-c1oncc1CC2        inactive
11  COc1ccc(-c2cc(-c3cc(OC)c(OC)c(OC)c3)c(C#N)c(N3CCOCC3)n2)cc1O        inactive
12      C/C(=C\c1ccc(Cl)c(Cl)c1)[N+](=O)[O-]        inactive
13  O=C(c1ccccc1)c1nc2ccc(C(F)(F)F)cc2[n+]([O-])c1C(F)(F)F        inactive
14  CCOC(=O)Nc1ccc(-c2nc(-c3cccc(OC)c3)c(-c3ccnc(Br)c3)[nH]2)cc1        inactive
15      N#Cc1ccc(C(c2ccc(C#N)cc2)n2cncn2)cc1        inactive

* * *

Tested on: OVCAR-5 ovarian
Assay: NCI tumour cell line growth inhibition, 48 h
TGI values by entry
Outcome Measure: TGI

> print(dat)
                                    compound  measured.target  reported.measurement
 1  O=C(O)Cn1c(=O)[nH]c(=O)c2c1ncn2Cc1ccccc1  OVCAR-5 ovarian              > 100 µM
 2  [N-]=[N+]=NC(CBr)c1cn([C@H]2C[C@H](O)[C@@H](CO)O2)c(=O)[nH]c1=O (stereo partly specified)  OVCAR-5 ovarian              > 100 µM
 3  CCC(C(=O)[O-])C(=O)[O-].CCC(C(=O)[O-])C(=O)[O-].N.N.NCCCCCCN.[Pt+4].[Pt+4]  OVCAR-5 ovarian               19.7 µM
 4  CCCCCCCN1C(=O)C(O)(c2ccc(C3(O)C(=O)N(CCCCCCC)c4ccccc43)s2)c2ccccc21 (stereo unspecified)  OVCAR-5 ovarian               3.24 µM
 5       C=CCN(C)CN(C)c1nc(N(C)C)nc(N(C)C)n1  OVCAR-5 ovarian              > 100 µM
 6   CN(C)c1ccc(/C=N\N2C(=O)c3ccccc3C2=O)cc1  OVCAR-5 ovarian              > 100 µM
 7  CN(C[C@@H]1COCCO1)S(=O)(=O)Nc1ccc2ccc3ncc(-c4cnn(C)c4)cc3c(=O)c2c1  OVCAR-5 ovarian              > 100 µM
 8         CSc1nc2[nH]c(=O)c(C)nc2c(=O)[nH]1  OVCAR-5 ovarian              > 100 µM
 9     O=C(NO)C(=O)Nc1ccc(Cl)cc1[N+](=O)[O-]  OVCAR-5 ovarian              > 100 µM
10  C=CCOC(=O)[C@@H]1C[C@@H](OC(C)(C)C)CN1C(=O)[C@@H]1[C@H]2OC(C)(C)O[C@H]2CN1C(=O)OCC1c2ccccc2-c2ccccc21  OVCAR-5 ovarian               32.9 µM
11  COc1ccc(C2SC(C)C(=O)N2c2nc(-c3nc(-c4ccc(Cl)cc4)cs3)cs2)cc1 (stereo unspecified)  OVCAR-5 ovarian              > 100 µM
12  Cc1cc(C)c(S(=O)(=O)ONC(=O)OC(C)(C)C)c(C)c1  OVCAR-5 ovarian              > 100 µM
13                        Cn1ncnc1CCc1ccccc1  OVCAR-5 ovarian              > 100 µM
14  O=C(O)CCCOc1cc(-c2ccccc2F)nc2cc3c(cc12)OCO3  OVCAR-5 ovarian              > 100 µM
15           CSc1ccc(/C=C/c2ccnc3ccccc23)cc1  OVCAR-5 ovarian                 35 µM
16  N#CC(Cc1ccccc1Br)N(CCC1=CCCCC1)C(c1ccccc1)c1ccccc1 (stereo unspecified)  OVCAR-5 ovarian              > 100 µM
17    CCOC(=O)/C=C1\c2ccccc2C(=O)N1CC(=O)OCC  OVCAR-5 ovarian              > 100 µM
18  COC(=O)[C@@H]1C[C@H]([Se]c2ccccc2)CN1C(=O)OCc1ccccc1  OVCAR-5 ovarian              > 100 µM
19    CCS(=O)(=O)CCn1cnc2c1c(=O)n(C)c(=O)n2C  OVCAR-5 ovarian              > 100 µM
20  Nc1nnc(Cn2c(-c3ccccc3)nc3ccc(Br)cc3c2=O)s1  OVCAR-5 ovarian              > 100 µM
21  Cc1nc(Nc2ccc([N+](=O)[O-])cc2)sc1C(/C=C/c1ccc(N(C)C)cc1)=N/NC(=O)c1ccccc1  OVCAR-5 ovarian              > 100 µM
